System: HSB-2 cells
method-description: Inhibition of HSB-2 leukemic cell line proliferation (WST-1)
Format: cell-based, human
details: cytotoxicity on HSB-2 cells, two days incubation, WST-1 read-out
readout-name: IC50 (µM)
Please reply with the bare figure in µM and do not write the unit itself.

In the examples that follow, each entry is paired with its recorded IC50.
| molecule | measured-target | IC50 (µM) |
| --- | --- | --- |
| Nc1nc(N2CCN(C(=O)COc3ccc(Br)cc3)CC2)c2nc(-c3ccc(F)cc3)sc2n1 [Example 128] | HSB-2 cells | 5.62 |
| Nc1nc(N2CCN(C(=O)COc3ccc(Br)cc3)CC2)c2nc(-c3ccc(F)cc3)sc2n1 [Example 235] | HSB-2 cells | 0.55 |

In one line, give reported IC50 of the entry Nc1nc(N2CCN(C(=O)COc3ccc(Cl)cc3)CC2)c2nc(-c3ccc[n+]([O-])c3)sc2n1 [Example 121b] .
6.19

Please report IC50 for the following molecule: `Nc1nc(N2CCN(C(=O)COc3ccccc3)CC2)c2cc(-c3ccccc3)sc2n1`
5.5

* * *

Overview of recorded pIC50 for various compounds
Test system: HL-60 cells
method-description: Inhibition of HL-60 leukemic cell line proliferation (WST-1)
Format: cell-based, human
details: Homo sapiens, 48 h; cytotoxicity on HL-60 cells, two days incubation, WST-1 read-out
Method: HL-60 cell line, a human promyelocytic leukemia (ATCC; CCL-240) cell line, was grown in RPMI-1640 medium (Lonza, Belgium) supplemented with 10% fetal calf serum (Hyclone, US) and antibiotics. […] After 2 hour incubation at 37° C., 5% CO2, optical densities were measured at 450 nm. Proliferation is calculated with respect of control points (no compound and treatment with Triton X100 to have maximum and minimum proliferation data). […]
Scale explanation: pIC50 corresponds to minus log10 of a concentration expressed in moles per litre.

| given-smiles | pIC50 |
| --- | --- |
| Nc1nc(N2CCN(C(=O)COc3ccc(OC(F)(F)F)cc3)CC2)c2nc(-c3cccnc3)sc2n1 | 5.32 |

Let's switch to this compound now.
Identify measured pIC50 corresponding to `Cc1ccc(-c2nc3c(N4CCN(C(=O)COc5ccc(Cl)cc5)CC4)nc(N)nc3[nH]2)cc1`
5.30

* * *

Test system: HSB-2 cells
method-description: Inhibition of HSB-2 leukemic cell line proliferation (WST-1)
Format: cell-based, human
details: Homo sapiens, HSB2, 48 h, cytotoxicity on HSB-2 cells, two days incubation, WST-1 read-out
Listed below: IC50 values for each entry.
Give just the number in µM; leave the unit off.

| given-smiles | IC50 [µM] |
| --- | --- |
| Cc1cccc(OCC(=O)N2CCN(c3nc(N)nc4sc(-c5ccco5)nc34)CC2)c1 | 0.48 |
| COc1ccccc1NC(=O)N1CCN(c2nc(N)nc3sc(-c4ccc(F)cc4)nc23)CC1 | 5.83 |
| COc1cccc(-c2nc3c(N4CCN(C(=O)COc5ccc(Cl)cc5)CC4)nc(N)nc3s2)c1 | 2.29 |
| CSc1nc2c(N3CCN(C(=O)COc4ccc(Cl)cc4)CC3)nc(N)nc2n1C | 0.75 |
| COc1ccc(OCC(=O)N2CCN(c3nc(N)nc4sc(-c5ccc(F)cc5)nc34)CC2)cc1 | 0.2 |

Give IC50 for the following molecule: `CSc1nc2c(N3CCN(C(=O)COc4ccc(Cl)cc4)CC3)nc(N)nc2[nH]1`
4.6

State its IC50: `Nc1nc(N2CCN(C(=O)COc3ccc(Cl)cc3)CC2)c2nc(-c3ccccc3)sc2n1`
0.24

Please report the measured IC50 for `COc1ccc(OCC(=O)N2CCN(c3nc(N)nc4sc(CCc5cccc(OC)c5)nc34)CC2)cc1`
4.99

Indicate its recorded IC50; the molecule in question is `COc1ccc(OCC(=O)N2CCN(c3nc(N)nc4sc(CCCCc5ccc(F)cc5)nc34)CC2)cc1`
0.83

Answer with reported IC50 of `Cc1cc(Cl)ccc1OCC(=O)N1CCN(c2nc(N)nc3sc(-c4ccc(F)cc4)nc23)CC1`
5.25

Using the record for `Nc1nc(N2CCN(C(=O)Nc3ccccc3)CC2)c2nc(-c3cccnc3)sc2n1` , state its measured IC50.
0.058

Dear colleague, please send me the reported IC50 for `Nc1nc(N2CCN(C(=O)COc3ccc(Cl)cc3)CC2)c2nc(-c3ccc(Cl)cc3)sc2n1` when you can.
3.73

Please look at this molecule and report its IC50: `Cn1c(-c2ccc(F)cc2)nc2c(N3CCN(C(=O)COc4ccc(Cl)cc4)CC3)nc(N)nc21`
3.5

Fill in IC50 for record `Nc1nc(N2CCN(C(=O)COc3ccc(Cl)cc3)CC2)c2nc(SC3CCCC3)[nH]c2n1`
7.87
